# ASSAYED TARGET: HLA-DR DRB1*0401 (DR4) (Homo sapiens, UniProt P01903+P01911, A100K/A169T/F76Y/I96L/K127E/L162R/M171V/N62H/P40V/Q125Y/R42H/S133A/S149N/S66Y/V115G/V209L/W38E)
# TEST DETAILS: biochemical
# Type: binding
# CONDITIONS: read-out: DRB1 *0401
pIC50: −log10 of the molar value.
Binary call on pIC50: TRUE from 6 upward, FALSE beneath that.

// known answers, use as guide
Assess whether reported pIC50 for TLERPKTLSPQKNGV sits at 6 or higher.
FALSE

Assess whether reported pIC50 for ESTGMTPEKVPVSEVMGT sits at 6 or higher.
FALSE

More entries:
Assess whether reported pIC50 for YLVTGERGFFYTKYT sits at 6 or higher.
FALSE

Assess whether reported pIC50 for AAFAAAKTAAAFA sits at 6 or higher.
TRUE

Assess whether reported pIC50 for (43)AADFGIFIDFHA sits at 6 or higher.
TRUE
